Exercise: for every item that follows, state its recorded CC50 at 48 h.
Assay: Cytotoxicity studies (CC50) on peritoneal macrophages
Type: cell-based, BALB/c mice
Conditions: BALB/c, mouse, resident peritoneal macrophages, 48 h exposure, mean ± σ, n = 3
Lab book: enter the figure in µM, no units written.

Which measured CC50 at 48 h value corresponds to C[C@@H]1[C@H](O)[C@@H](C)/C=C/C=C/C=C/C=C/C=C/C=C/C=C/[C@H](O[C@@H]2O[C@H](C)[C@@H](O)[C@H](N)[C@@H]2O)C[C@@H]2O[C@](O)(C[C@@H](O)C[C@@H](O)[C@H](O)CC[C@@H](O)C[C@@H](O)CC(=O)O[C@H]1C)C[C@H](O)[C@H]2C(=O)O ? 15

Which measured CC50 at 48 h value corresponds to CCCCCCCCCCCCCCCCOP(=O)([O-])OCC[N+](C)(C)C ? 36

Which measured CC50 at 48 h value corresponds to NC[C@@H]1O[C@H](O[C@H]2[C@@H](O)[C@H](O[C@@H]3[C@@H](O)[C@H](N)C[C@H](N)[C@H]3O[C@H]3O[C@H](CO)[C@@H](O)[C@H](O)[C@H]3N)O[C@@H]2CO)[C@H](N)[C@@H](O)[C@@H]1O ? 260

----------
System: intracellular L.donovani amastigotes, GE1, in macrophages
Assay: Antileishmanial activity against intracellular amastigotes, GE1
Format: cell-based
Conditions: Leishmania donovani, Macrophage; intracellular amastigotes, 72 h; mean ± σ, n = 4; read-out: Cellular IC50, GE1
quantity-name: pIC50
Expect pIC50 as a plain number equal to -log10 of the molar concentration.

Record lookup: for intracellular L.donovani amastigotes, GE1, in macrophages, what pIC50 belongs to C[C@@H]1[C@H](O)[C@@H](C)/C=C/C=C/C=C/C=C/C=C/C=C/C=C/[C@H](O[C@@H]2O[C@H](C)[C@@H](O)[C@H](N)[C@@H]2O)C[C@@H]2O[C@](O)(C[C@@H](O)C[C@@H](O)[C@H](O)CC[C@@H](O)C[C@@H](O)CC(=O)O[C@H]1C)C[C@H](O)[C@H]2C(=O)O ? 6.70

Record lookup: for intracellular L.donovani amastigotes, GE1, in macrophages, what pIC50 belongs to NC[C@@H]1O[C@H](O[C@H]2[C@@H](O)[C@H](O[C@@H]3[C@@H](O)[C@H](N)C[C@H](N)[C@H]3O[C@H]3O[C@H](CO)[C@@H](O)[C@H](O)[C@H]3N)O[C@@H]2CO)[C@H](N)[C@@H](O)[C@@H]1O ? 4.70

Record lookup: for intracellular L.donovani amastigotes, GE1, in macrophages, what pIC50 belongs to CC(C)(C)[C@H]1CC[C@H](CC2=C(O)C(=O)c3ccccc3C2=O)CC1 ? 5.42

Record lookup: for intracellular L.donovani amastigotes, GE1, in macrophages, what pIC50 belongs to CCCCCCCCCCCCCCCCOP(=O)([O-])OCC[N+](C)(C)C ? 6.30

----------
System: axenic L.donovani amastigotes, wild-type AG83
Test: Antileishmanial activity against axenic amastigotes, wild-type AG83
Format: cell-based
Settings: Leishmania donovani; axenic amastigotes; mean ± σ, n = 4
quantity-name: IC50 (µM)
Lab book: enter the figure in µM, no units written.

Which measured IC50 value corresponds to CCCCCCCCCCCCCCCCOP(=O)([O-])OCC[N+](C)(C)C ? 0.5

Which measured IC50 value corresponds to NC[C@@H]1O[C@H](O[C@H]2[C@@H](O)[C@H](O[C@@H]3[C@@H](O)[C@H](N)C[C@H](N)[C@H]3O[C@H]3O[C@H](CO)[C@@H](O)[C@H](O)[C@H]3N)O[C@@H]2CO)[C@H](N)[C@@H](O)[C@@H]1O ? 12

Which measured IC50 value corresponds to C[C@@H]1[C@H](O)[C@@H](C)/C=C/C=C/C=C/C=C/C=C/C=C/C=C/[C@H](O[C@@H]2O[C@H](C)[C@@H](O)[C@H](N)[C@@H]2O)C[C@@H]2O[C@](O)(C[C@@H](O)C[C@@H](O)[C@H](O)CC[C@@H](O)C[C@@H](O)CC(=O)O[C@H]1C)C[C@H](O)[C@H]2C(=O)O ? 0.2

Which measured IC50 value corresponds to CC(C)(C)[C@H]1CC[C@H](CC2=C(O)C(=O)c3ccccc3C2=O)CC1 ? 3.4
